# test protocol: yeast display, Sf9 membrane polyspecificity reagent, FACS + sequencing; frameworks hold sequencing errors
readout: polyreactivity (PSR sort gate)

Some sequences with known polyreactivity (PSR sort gate) results, for comparison:
# construct sequence, polyreactivity (PSR sort gate)
measured = [
    ("QVQLVESGGGLVQAGGSLRLSCAASGRTFGYYAMGWYRQAPGKERELVAAISWSGGRTYYADSVKGRFTISRDNAKNTVYLQMNSLKPEDTAVYYCAAQTAGFWYDYWGQGTQVTVSS", "high polyreactivity"),
    ("QVQLVESGGGLVQAGGSLRLSCAASGSTFKIYVMGWYRQAPGKERELVAAISWSGGRTFYADSVKGRFTISRDNAKNTVYLQMNSLKPEDTAVYYCAARWQRYRSGTGDYWGQGTQVTVSS", "high polyreactivity"),
    ("QVQLVESGGGLVQAGGSLRLSSAASGRTFTRYTMGWYRQAPGKERELVAAIRYSGGSTYYADSVKGRFTISRDNAKNTVYLQMNSLKPEDTAVYYCAARSYYYGFLYRYDYWGQGTQVTVSS", "low polyreactivity"),
    ("QVQLVESGGGLVQAGGSLRLSCAASGFTFFIYAMGWYSQAPGKEREFVAAITGSGGSTYYADSVKGRFTISRDNAKNTVYLQMNSLKPEDTAVYYCNTAGYDYYSTQAYDYWGQGTQVTVSS", "high polyreactivity"),
    ("QVQLVESGGGLVQAGGSLRLSCAASGGTFYVNALGWYRQAAGKERELVAAISYSGGNTYYADSVKGRFTISRDNAKNTVYLQMNSLKPEDTAVYYCAGEVFPWWGDDYWGQGTQVTVSS", "low polyreactivity"),
]

Lookup: Request the reported polyreactivity (PSR sort gate) associated with QVQLVESGAGLVQAGGSLRISCDASGSIFWSYAMGWYRQAPGKERELVADITGIGGSTYYADSVKGRFTISRDNAKNTVYLQMNSLKPEDTAVYYCAADTWFTAQTYNFYYRGQGTQVTVSS
Found: high polyreactivity

Lookup: Another sequence: QVQLVVSGGGLVQGGGSLRLSWAASGFILALNAMGWYIQAPGKEREFVADISWSGDSTYYADSVKGRFTISRDNAKNTFYLQMNSLKPEDTAVYYCAADPYYNWGYYYWGQGTQVTVSS
Found: low polyreactivity

Lookup: Another sequence: QVQLVESGGGLVQAGGSLRLSCAASGSILFKNAMGWYRQAPGKERELVAAISTSGGRTYYADSVKGRFTISRDNAKNTVYLEMNSLKPEDTAVYYCAAVYPRQVSQVWRDDYWGQGTQVTVSS
Found: high polyreactivity

Lookup: Another sequence: QVQLVESGGGLVQAGGSLRLSCAASGSTLYNYAMGWYRQAPGKERELVAAITKSGGRTYYADSVKGRFTISRDNAKNTVYLQMNSLKAEDTAVYYCAADRTQYARFDSWGQGTQVTVSS
Found: high polyreactivity

Lookup: Another sequence: QLQLVESGGGLVQAGGSLRLSCAASGSIFRTNVMGWYRQAPGKERELVAAISRRGGSTYYADSVKGRFTISRDNAKNTVYLQMISLKPEDTAVYYCAASSSAYRDDYWGQGTQVTVSS
Found: high polyreactivity

Lookup: Another sequence: QLQLVESGGGLVQAGGSLRLSCAASGRTFYSYAKGWSRPAPGTDRQFVAAISVRGVITYYADSVKGRFTISRDNAKNTVYLQMNSLKPEDTAVDYCAADWSGYYTFDYWGQGTQVTVSS
Found: low polyreactivity
